// provenance: the Human Domainome abundance scans (Beltran et al. 2025)

B1: Membrane-associated guanylate kinase, WW and PDZ domain-containing protein 1, residues 352 to 401; numbered along this chain, Q96QZ7 (parent)
chain: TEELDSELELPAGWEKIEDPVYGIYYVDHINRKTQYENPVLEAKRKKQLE

# Variants of: B1
# assayText: abundance fitness (aPCA) (normalised: wild type 0, dead -1); higher = more abundant; growth selection in yeast, the domain comes from the species named
# runParameters: Homo sapiens
Label scheme for abundance fitness: lower than -0.2 is Not fulfilled, -0.2 and above is Fulfilled.

mutant	category
K44L	Fulfilled
A43Q	Fulfilled
K47S	Fulfilled
E42T	Fulfilled
R45Q	Fulfilled
A43E	Fulfilled
Q48A	Fulfilled
S6P	Not fulfilled
E50S	Not fulfilled
T1R	Fulfilled
R32I	Not fulfilled
Y26K	Not fulfilled
W14Y	Not fulfilled
T1V	Fulfilled
Y22D	Fulfilled
L10G	Not fulfilled
I30M	Not fulfilled
P11I	Not fulfilled
Y25P	Not fulfilled
Y26G	Not fulfilled
Y22G	Fulfilled
E2V	Fulfilled
K16V	Not fulfilled
P39C	Not fulfilled
W14I	Fulfilled
V27M	Fulfilled
K16W	Not fulfilled
I30V	Fulfilled
E18V	Fulfilled
Y26V	Not fulfilled
V27T	Not fulfilled
E15K	Not fulfilled
K44S	Fulfilled
D28E	Not fulfilled
T1I	Not fulfilled
Y36D	Not fulfilled
I24F	Fulfilled
Q48E	Fulfilled
Y26Q	Not fulfilled
I30K	Fulfilled
L8I	Not fulfilled
K47E	Not fulfilled
H29K	Fulfilled
R32H	Fulfilled
D19Q	Not fulfilled
E2Q	Fulfilled
P11W	Not fulfilled
T34M	Not fulfilled
L41N	Fulfilled
Q35R	Not fulfilled
A12W	Fulfilled
D5K	Fulfilled
N31F	Not fulfilled
T1C	Not fulfilled
V40P	Not fulfilled
N38F	Fulfilled
Q35H	Not fulfilled
I30Q	Not fulfilled
R45C	Not fulfilled
E50K	Not fulfilled
Y22T	Fulfilled
N31T	Fulfilled
L8Y	Fulfilled
K46A	Fulfilled
E18T	Fulfilled
I17R	Fulfilled
V27G	Not fulfilled
V27A	Fulfilled
E2R	Fulfilled
V27N	Not fulfilled
A12L	Fulfilled
T34V	Not fulfilled
Y26A	Not fulfilled
L49T	Fulfilled
Y26P	Not fulfilled
L4G	Fulfilled
A43G	Fulfilled
E7L	Fulfilled
P39W	Not fulfilled
L49F	Not fulfilled
K47A	Fulfilled
K44D	Fulfilled
G23K	Not fulfilled
K44Y	Fulfilled
N38W	Fulfilled
Q35A	Not fulfilled
E50C	Fulfilled
